Where do these numbers come from? They come from patent US20230391792A1.

# Test System: HSP90α protein (N-terminal) (Homo sapiens)
# Construct: purchased BPS Bioscience #50298
# Assay Notes: HSP90α-binding fluorescent polarization (FP) assay, competition with FITC-geldanamycin
# Condition Parameters: probe FITC-geldanamycin 5 nM, 25° C. 120 min
# Description: Binding of test compounds to HSP90α protein was measured by fluorescent polarization (FP) using the HSP90α (N-terminal) Assay Kit (BPS Bioscience, #50298), following the manufacturer's instructions, except as noted. […] After the final step of adding HSP90α protein to each assay well, plates were mixed by brief shaking, incubated at 25° C. for 120 min for FITC-geldanamycin or 300 min for RNK04010, and fluorescence was measured using a PerkinElmer EnVision Plate Reader. […]
pIC50: −log10 of the molar value.
Quantity Measured: pIC50

[
  {
    "Molecule": "CCOc1cc(N2CCC(C(=O)NCCOCCOc3ccc(-n4c(O)nnc4-c4cc(CC)c(O)cc4O)cc3)CC2)ccc1Nc1ncc2c(n1)N(C)c1ccccc1C(=O)N2C",
    "Quantity Measured": "pIC50",
    "Assay Result": "6.00 to 7.00"
  },
  {
    "Molecule": "CCOc1cc(N2CCC(C(=O)NCOCCN3CCC(Cc4ccc(-n5c(O)nnc5-c5cc(C(C)C)c(O)cc5O)cc4)CC3)CC2)ccc1Nc1ncc2c(n1)N(C)c1ccccc1C(=O)N2C",
    "Quantity Measured": "pIC50",
    "Assay Result": "6.00 to 7.00"
  },
  {
    "Molecule": "CCc1cc(-c2nnc(O)n2-c2ccc(CN3CCN(CC4CCN(C(=O)C[C@@H]5N=C(c6ccc(Cl)cc6)c6c(sc(C)c6C)-n6c(C)nnc65)CC4)CC3)cc2)c(O)cc1O",
    "Quantity Measured": "pIC50",
    "Assay Result": "> 7.00"
  },
  {
    "Molecule": "Cc1sc2c(c1C)C(c1ccc(Cl)cc1)=NC(CC(=O)N1CCC(CN3CCN(Cc4ccc(-n5c(O)nnc5-c5cc(C(C)C)c(O)cc5O)cc4)CC3)CC1)c1nnc(C)n1-2 (stereo not drawn)",
    "Quantity Measured": "pIC50",
    "Assay Result": "6.00 to 7.00"
  }
]

Q) Which value of pIC50 has been reported for Cc1sc2c(c1C)C(c1ccc(Cl)cc1)=N[C@@H](CC(=O)N1CCC(CCN3CCN(c4ccc(-n5c(O)nnc5-c5cc(C(C)C)c(O)cc5O)cc4)CC3)CC1)c1nnc(C)n1-2 in the records?
A) 6.00 to 7.00
